Biological target: DNA-binding protein inhibitor ID-4 (Homo sapiens) (UniProt P47928)
Sequence (P47928 whole entry, looked up): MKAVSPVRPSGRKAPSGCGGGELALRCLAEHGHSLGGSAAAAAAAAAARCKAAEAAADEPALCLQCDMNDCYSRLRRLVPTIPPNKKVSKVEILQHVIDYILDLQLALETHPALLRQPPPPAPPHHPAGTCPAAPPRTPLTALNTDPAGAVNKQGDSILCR
Experiment: PubChem AID 624137;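 also: a binder raises fluorescence above local background on the spot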
Conditions: small molecule microarray, Flag-ID4 binding, fluorescence F/B
The campaign covered roughly 31,000 compounds. About 360 (1.2%) were called active. No rule for the calls is given here. Only a selection was taken, and actives are over-represented in it overall.
Possible outcomes: active, inactive

1) COc1cc(NC(=O)COc2ccccc2Br)c(OC)cc1Cl ... inactive
2) CC(=O)N(C)C[C@H]1Oc2cc(C#Cc3ccccc3F)ccc2S(=O)(=O)N([C@H](C)CO)C[C@@H]1C ... inactive
3) C[C@H](CO)N1C[C@H](C)[C@@H](CN(C)Cc2ccccn2)Oc2ncc(C3=CCCC3)cc2C1=O ... inactive
4) Cc1ccc(S(=O)(=O)CCN2CCC(C(F)(F)F)CC2)cc1 ... inactive
5) O=C(C[C@@H]1C[C@H]2c3cc(NC(=O)C4CCOCC4)ccc3O[C@H]2[C@H](CO)O1)NCc1ccc2c(c1)OCO2 ... inactive
6) C[C@@H]1CN([C@@H](C)CO)C(=O)c2cc(NS(C)(=O)=O)ccc2O[C@@H](C)CCCCO[C@@H]1CN(C)C(=O)c1ccccc1 ... active
7) C[C@@H]1CN([C@@H](C)CO)S(=O)(=O)c2ccc(C3=CCCC3)cc2O[C@@H]1CN(C)Cc1ccncc1 ... inactive
8) CCOC(=O)c1c(NC(=O)C(C)Oc2ccc3c(C)cc(=O)oc3c2)sc2c1CCC2 (configuration not stated) ... inactive
9) CC(=O)Nc1sccc1C(=O)NCc1ccco1 ... inactive
10) C[C@H]1CN([C@@H](C)CO)C(=O)c2cc(C#Cc3ccccc3F)cnc2O[C@H]1CN(C)C ... inactive
11) COc1cccc(-c2ccc3c(c2)O[C@H](CN(C)Cc2ccncc2)[C@H](C)CN([C@H](C)CO)S3(=O)=O)c1 ... inactive
12) COc1ccccc1-c1cnc2c(c1)C(=O)N([C@@H](C)CO)C[C@@H](C)[C@H](CN(C)Cc1cccnc1)O2 ... inactive
13) CC(C)CC#Cc1cnc2c(c1)C(=O)N([C@@H](C)CO)C[C@H](C)[C@@H](CN(C)C(=O)c1cccc(F)c1)O2 ... inactive
14) C[C@@H]1CN([C@H](C)CO)C(=O)c2ccccc2-c2ccccc2CO[C@@H]1CN(C)S(=O)(=O)CC(F)(F)F ... inactive
15) COC(=O)c1ccccc1NC(=O)CN(c1ccc2c(c1)OCCO2)S(C)(=O)=O ... inactive
16) CCC(=O)N(C)C[C@@H]1Oc2ncc(C#Cc3ccccc3)cc2C(=O)N([C@@H](C)CO)C[C@H]1C ... inactive
17) C[C@H]1CN([C@@H](C)CO)C(=O)c2cc(Br)cnc2O[C@H]1CN(C)CC1CCCC1 ... inactive
